biological target: Serine/threonine-protein kinase 3 (Homo sapiens, UniProt Q13188); experiment: Inhibition of recombinant human MST2 (2 to end residues) assessed as residual activity using myelin basic protein as substrate measured after 40 mins in presence of [gamma33P]ATP by scintillation counting based radiometry assay
Sequence (Q13188 whole entry): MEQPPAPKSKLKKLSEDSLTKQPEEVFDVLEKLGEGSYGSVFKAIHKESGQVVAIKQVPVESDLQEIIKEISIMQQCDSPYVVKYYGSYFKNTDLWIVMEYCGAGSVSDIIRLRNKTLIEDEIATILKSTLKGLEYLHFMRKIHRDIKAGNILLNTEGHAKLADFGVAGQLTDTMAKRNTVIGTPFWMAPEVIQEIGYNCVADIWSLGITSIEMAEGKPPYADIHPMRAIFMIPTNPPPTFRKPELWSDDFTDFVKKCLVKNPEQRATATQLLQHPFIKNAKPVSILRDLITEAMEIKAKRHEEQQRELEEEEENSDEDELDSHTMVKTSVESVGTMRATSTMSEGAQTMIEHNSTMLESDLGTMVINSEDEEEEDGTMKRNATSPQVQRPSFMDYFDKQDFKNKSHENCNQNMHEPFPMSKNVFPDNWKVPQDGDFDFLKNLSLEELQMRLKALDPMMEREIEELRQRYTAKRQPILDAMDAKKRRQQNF
OBSERVED_PROPERTY: IC50

The molecule listed as C[C@@H](c1ccccc1)n1nnc2cnc3ccc(-c4cnc5[nH]ccc5c4)cc3c21 shows IC50 equal to > 10 µM

###

target: Serine/threonine-protein kinase LATS2 (Homo sapiens, UniProt Q9NRM7)
Sequence (Q9NRM7 whole entry): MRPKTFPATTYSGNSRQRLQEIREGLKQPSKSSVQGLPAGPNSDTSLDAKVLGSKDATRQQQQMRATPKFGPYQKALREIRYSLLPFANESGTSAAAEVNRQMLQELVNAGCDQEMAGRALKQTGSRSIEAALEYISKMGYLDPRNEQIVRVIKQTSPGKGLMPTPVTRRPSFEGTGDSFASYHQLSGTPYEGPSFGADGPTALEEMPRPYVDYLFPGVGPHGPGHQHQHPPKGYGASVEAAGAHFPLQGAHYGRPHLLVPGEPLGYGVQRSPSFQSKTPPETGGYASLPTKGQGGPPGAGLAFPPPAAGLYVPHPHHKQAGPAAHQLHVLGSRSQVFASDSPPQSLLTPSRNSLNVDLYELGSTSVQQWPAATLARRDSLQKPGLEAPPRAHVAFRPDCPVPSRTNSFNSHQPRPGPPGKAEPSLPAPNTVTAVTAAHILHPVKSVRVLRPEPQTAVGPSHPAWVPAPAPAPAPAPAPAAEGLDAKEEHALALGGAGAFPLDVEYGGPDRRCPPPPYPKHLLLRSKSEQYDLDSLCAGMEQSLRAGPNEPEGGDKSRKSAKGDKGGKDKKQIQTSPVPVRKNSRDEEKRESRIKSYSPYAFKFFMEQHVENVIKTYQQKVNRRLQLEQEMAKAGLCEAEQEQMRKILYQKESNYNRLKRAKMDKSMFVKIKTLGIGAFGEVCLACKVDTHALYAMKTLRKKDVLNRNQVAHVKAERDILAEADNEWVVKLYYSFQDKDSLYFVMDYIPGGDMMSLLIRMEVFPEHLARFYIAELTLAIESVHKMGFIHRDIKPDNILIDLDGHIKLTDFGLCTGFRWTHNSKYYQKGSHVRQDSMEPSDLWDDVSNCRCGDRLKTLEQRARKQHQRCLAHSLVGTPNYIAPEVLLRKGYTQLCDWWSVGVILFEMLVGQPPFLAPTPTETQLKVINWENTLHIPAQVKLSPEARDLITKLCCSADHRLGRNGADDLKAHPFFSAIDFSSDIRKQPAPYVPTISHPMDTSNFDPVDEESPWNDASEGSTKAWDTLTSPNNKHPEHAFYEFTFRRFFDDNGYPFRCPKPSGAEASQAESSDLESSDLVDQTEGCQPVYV
pKd: −log10 of the molar value.
OBSERVED_PROPERTY: pKd

Test item C[C@@H](c1ccccc1)n1nnc2cnc3ccc(-c4cnc5[nH]ccc5c4)cc3c21 ; Serine/threonine-protein kinase LATS2 (Homo sapiens, UniProt Q9NRM7); reported pKd was < 5.00

###

target: Serine/threonine-protein kinase 4 (Homo sapiens); experiment: Inhibition of recombinant full-length human MST1 assessed as residual activity using KKSRGDYMTMQIG as substrate measured after 40 mins in presence of [gamma33P]ATP by scintillation counting based radiometry assay
Sequence (Q13043 whole entry): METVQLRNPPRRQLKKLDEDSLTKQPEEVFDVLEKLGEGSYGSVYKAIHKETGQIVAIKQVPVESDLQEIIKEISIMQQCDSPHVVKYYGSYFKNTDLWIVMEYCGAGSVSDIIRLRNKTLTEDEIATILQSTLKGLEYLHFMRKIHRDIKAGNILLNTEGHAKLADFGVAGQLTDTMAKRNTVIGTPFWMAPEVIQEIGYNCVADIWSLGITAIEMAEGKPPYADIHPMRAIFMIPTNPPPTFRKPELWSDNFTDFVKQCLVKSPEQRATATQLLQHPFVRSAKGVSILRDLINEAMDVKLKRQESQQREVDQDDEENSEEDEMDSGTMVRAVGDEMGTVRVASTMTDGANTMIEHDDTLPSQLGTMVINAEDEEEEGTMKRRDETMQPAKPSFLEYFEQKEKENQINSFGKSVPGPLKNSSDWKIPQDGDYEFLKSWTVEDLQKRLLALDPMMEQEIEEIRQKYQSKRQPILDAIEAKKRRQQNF
OBSERVED_PROPERTY: IC50

The compound listed as C[C@@H](c1ccccc1)n1nnc2cnc3ccc(-c4cnc5[nH]ccc5c4)cc3c21 shows IC50 equal to > 10 µM

###

target: Serine/threonine-protein kinase LATS1 (Homo sapiens); assay: Binding affinity to recombinant human LATS1 (Q678 to V1130 residues) expressed in bacterial expression system assessed as dissociation constant by Kinomescan method
Sequence (O95835 whole entry, the tested form may be a part): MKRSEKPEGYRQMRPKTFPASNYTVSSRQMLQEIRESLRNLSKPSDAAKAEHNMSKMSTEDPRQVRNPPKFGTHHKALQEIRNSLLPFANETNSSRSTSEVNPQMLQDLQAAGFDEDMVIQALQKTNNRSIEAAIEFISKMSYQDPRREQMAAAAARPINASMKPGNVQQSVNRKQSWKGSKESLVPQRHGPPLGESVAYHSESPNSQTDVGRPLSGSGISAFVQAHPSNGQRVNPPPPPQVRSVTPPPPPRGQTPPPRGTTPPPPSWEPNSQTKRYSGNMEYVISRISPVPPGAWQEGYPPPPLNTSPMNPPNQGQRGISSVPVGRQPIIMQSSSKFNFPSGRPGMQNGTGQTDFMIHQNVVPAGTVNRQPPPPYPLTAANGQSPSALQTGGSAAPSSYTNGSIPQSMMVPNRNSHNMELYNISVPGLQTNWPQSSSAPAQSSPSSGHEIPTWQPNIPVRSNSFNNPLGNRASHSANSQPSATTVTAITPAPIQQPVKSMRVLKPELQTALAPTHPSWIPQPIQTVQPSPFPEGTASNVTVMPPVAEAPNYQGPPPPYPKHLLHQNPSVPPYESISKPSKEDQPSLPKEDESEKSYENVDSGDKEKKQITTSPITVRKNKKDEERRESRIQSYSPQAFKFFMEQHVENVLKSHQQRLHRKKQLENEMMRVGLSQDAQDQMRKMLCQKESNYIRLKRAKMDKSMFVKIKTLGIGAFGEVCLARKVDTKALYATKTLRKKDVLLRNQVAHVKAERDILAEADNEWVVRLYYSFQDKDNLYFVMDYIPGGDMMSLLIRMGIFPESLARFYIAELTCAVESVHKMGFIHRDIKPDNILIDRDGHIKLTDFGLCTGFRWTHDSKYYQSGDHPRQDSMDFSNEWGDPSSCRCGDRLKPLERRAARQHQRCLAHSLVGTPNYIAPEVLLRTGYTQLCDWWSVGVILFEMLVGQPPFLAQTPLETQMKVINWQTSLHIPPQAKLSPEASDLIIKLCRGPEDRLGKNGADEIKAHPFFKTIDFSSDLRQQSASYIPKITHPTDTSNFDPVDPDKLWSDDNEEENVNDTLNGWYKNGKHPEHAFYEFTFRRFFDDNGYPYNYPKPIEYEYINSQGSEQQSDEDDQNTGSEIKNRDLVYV
OBSERVED_PROPERTY: Kd

Test item C[C@@H](c1ccccc1)n1nnc2cnc3ccc(-c4cnc5[nH]ccc5c4)cc3c21 ; Serine/threonine-protein kinase LATS1 (Homo sapiens); reported Kd was > 10 µM

Measured values drawn from ChEMBL document CHEMBL4334471 for this set.
